Data origin: PubChem BioAssay AID1159580

Experiment: chemical genetic growth profiling, strain panel (AID 1159580);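 also: tested at 20 µM; growth read once vehicle control cultures reached saturation at 30 °C; 1 = growth at the plate median or of vehicle wells; lower values mean less growth of the strain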
Settings: S. cerevisiae deletion strains, growth OD, locus YJR066W, strain TOR1, stronger effect = lower value
Among all 5,500 compounds or so, about 2,000 (36%) were called active. Not shown: some 18% with an inconclusive outcome. Some of the results follow.
assay.readout: normalized growth
Write the value as a bare number.

molecule	assay.readout	test.value
COc1ccc(/C=C/C(=O)c2cc(O)ccc2O)cc1	normalized growth	0.465
C[C@@H]1CC2C3CCC4=CC(=O)C=C[C@]4(C)[C@@]3(F)[C@@H](O)C[C@]2(C)[C@@]1(O)C(=O)COP(=O)(O)O (stereo not given in full)	normalized growth	0.95
COc1cc(C(=O)Oc2c(Cl)cc(Cl)cc2C=Nc2cccc(C(F)(F)F)c2)cc(OC)c1OC	normalized growth	0.368

## Input Please report the recorded normalized growth for CCc1cc2c(cc1-c1csc(C/C(N)=N\O)n1)C(C)(C)CCC2(C)C .
## Output 0.666

## Input Please report the recorded normalized growth for C=CC1=C(C)/C(=C/c2[nH]c(Cc3[nH]c(/C=C4\NC(=O)C(C)=C4C=C)c(C)c3CCC(=O)O)c(CCC(=O)O)c2C)NC1=O .
## Output 1

## Input Please report the recorded normalized growth for CC(=O)N[C@@H]1[C@@H](C(O)[C@H](O)CO)O[C@](O)(C(=O)O)C[C@@H]1O (stereo not given in full) .
## Output 0.916

## Input Please report the recorded normalized growth for NC(=O)c1cc[n+](CC2=C(C(=O)O)N3C(=O)C(NC(=O)C(c4ccccc4)S(=O)(=O)[O-])C3SC2)cc1 (stereo not given) .
## Output 1

## Input Please report the recorded normalized growth for N#CC1=C(N)C(C#N)(C#N)C2(CCCCC2)C2CCCC=C12 (stereo not given) .
## Output 0.968

## Input Please report the recorded normalized growth for C=CCN1CC[C@]23c4c5ccc(O)c4OC2C(=O)CC[C@@]3(O)[C@H]1C5 (stereo not given in full) .
## Output 0.949

----------
Test: chemical genetic growth profiling, strain panel (AID 1159580);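 also: tested at 20 µM; growth read once vehicle control cultures reached saturation at 30 °C; 1 = growth at the plate median or of vehicle wells; lower values mean less growth of the strain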
Settings: S. cerevisiae deletion strains, growth OD, locus YPL209C, strain IPL1, stronger effect = lower value
Hit rate of the full screen: of about 5,500 compounds, about 2,000 (36%) were called active. Another 18% or so got no clear call; they are omitted. The list shows a part of the results.
assay.readout: normalized growth
Write the value as a bare number.

For orientation, consider the following solved cases.
compound	normalized growth
Cc1cc(C(=O)O/N=C(/N)c2ccc([N+](=O)[O-])o2)no1	0.964
Cc1cc(C(=O)O/N=C(/N)c2ccc(C(C)(C)C)cc2)no1	0.974

## Input Please report the recorded normalized growth for NC(=NC(=O)c1ccc(Cl)cc1)c1cccs1 .
## Output 0.955

## Input Please report the recorded normalized growth for O=C(Nc1cccc(C(F)(F)F)c1)Oc1ccc(F)cc1Cl .
## Output 0.979

## Input Please report the recorded normalized growth for N/C(=N/OC(=O)c1ccc(Cl)cc1)c1ccc(F)cc1F .
## Output 0.902

## Input Please report the recorded normalized growth for CCCCCc1ccc(S(=O)(=O)Nc2ccc3c(c2)C(=O)OC3)cc1 .
## Output 0.981

## Input Please report the recorded normalized growth for CSc1c(C#N)c(-c2ccc(Cl)cc2)nn1C(=O)c1ccccc1Cl .
## Output 0.958
